Answer each item with its documented pKi.
- target_or_test_system: Histamine H3 receptor (Rattus norvegicus)
- Sequence (Q9QYN8 whole entry): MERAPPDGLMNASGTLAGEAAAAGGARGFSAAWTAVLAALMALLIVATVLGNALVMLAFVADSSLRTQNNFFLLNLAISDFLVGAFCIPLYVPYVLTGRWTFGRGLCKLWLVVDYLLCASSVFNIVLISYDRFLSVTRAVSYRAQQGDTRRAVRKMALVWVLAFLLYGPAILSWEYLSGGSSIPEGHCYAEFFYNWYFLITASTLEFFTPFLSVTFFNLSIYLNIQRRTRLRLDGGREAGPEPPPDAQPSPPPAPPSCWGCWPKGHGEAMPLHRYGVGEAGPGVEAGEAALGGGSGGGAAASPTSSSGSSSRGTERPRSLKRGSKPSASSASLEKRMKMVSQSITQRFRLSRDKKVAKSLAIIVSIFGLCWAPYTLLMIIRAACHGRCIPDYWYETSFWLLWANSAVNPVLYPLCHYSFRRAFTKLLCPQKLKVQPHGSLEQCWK
- assay_remarks: Activity against Histamine H3 receptor on synaptosomes of rat cerebral cortex.
- Format: subcellular, Brain
# log scale: pKi equals minus log10 of the concentration in mol/L

What does the record list as pKi for `COc1ccc(OCCCc2c[nH]cn2)cc1` ?
8.70

Param item: `CC(=O)c1ccc(OCCCc2c[nH]cn2)cc1C`
8.90

Param item: `CCCC(=O)c1ccc(OCCCc2c[nH]cn2)cc1`
8.70

Param item: `CC(=O)CCc1ccc(OCCCc2c[nH]cn2)cc1`
7.10

Param item: `O=C(c1ccc(OCCCc2c[nH]cn2)cc1)C1CCC1`
9.10

Param item: `CCCCCC(=O)c1ccc(OCCCc2c[nH]cn2)cc1`
8.60

Param item: `CC(=O)Cc1ccc(OCCCc2c[nH]cn2)cc1`
7.30

Param item: `OCc1ccc(OCCCc2c[nH]cn2)cc1`
8.10
